Assay: Cyclic voltammetry
Format: physicochemical
Settings: Run2, scan rate 90 mV s^−1
reported-metric: E 1/2 (mV)
Form entry: value (mV) — number only.

Field: example entries. Status: answers known.
compound	observed-value
O=C(NCCn1cnc2ccccc21)[c-]1cccc1.[Fe+2].c1cc[cH-]c1	643
O=C(NCCn1cnc2ncccc21)[c-]1cccc1.[Fe+2].c1cc[cH-]c1	642
[Fe+2].c1cc[cH-]c1.c1cc[cH-]c1 [Fc, ferrocene, reference compound]	453
O=C(NCCn1cnc2cccnc21)[c-]1cccc1.[Fe+2].c1cc[cH-]c1	618
O=C(O)[c-]1cccc1.[Fe+2].c1cc[cH-]c1 [FcCOOH, ferrocene carboxylic acid, reference compound]	689

The record that follows has no E 1/2 shown yet.
Consider "O=C(NCCn1c(-c2ccccc2)nc2ccccc21)[c-]1cccc1.[Fe+2].c1cc[cH-]c1" . Its measured E 1/2 is 641
